system: CHO-MG; assay: Cellular uptake in CHO-MG cells at 25 uM; type: ADME, cell-based, Cricetulus griseus; settings: chinese hamster
reported_metric: Drug uptake (nmol/mg)

Item: CNc1cccc2c1[C@H](C)C[C@]1(C)C(NCCCCN)=Nc3ccccc3[C@H]21 | Drug uptake: 7.2

Value of measured Drug uptake for the entry CNc1cccc2c1[C@H](C)C[C@]1(C)C(NCCCNCCCCNCCCN)=Nc3ccccc3[C@H]21 : 2.1

Documented Drug uptake of CN(c1ccccc1)C1c2ccccc2N=C(NCCCNCCCCN)C1(C)C (stereo unspecified) : 3.1

1. CC1C[C@]2(C)C(NCCCCN)=Nc3ccccc3[C@@H]2N(C)c2ccccc21 (stereo partly specified)
2. NCCCCNCCCNC1=Nc2ccccc2CC1
[Q] Out of 1 and 2 , name the one with the higher Drug uptake. # respond with the chosen item's label
[A] 1
(1: 3.3 nmol/mg, 2: 2.2 nmol/mg)
